test: qHTS assay for MDR1-selective chemotherapeutics: Primary screen using the drug-selected MDR subline cells KB-V1; conditions: KB-V1 MDR cells viability, CellTiter-Glo, 72 h; series mostly up to 46.1 µM; also: nearly all actives have a fitted effect of over 60% in size
The whole screen tested about 400,000 compounds, of which about 13,000 (3.2%) were called active. Not shown: some 18% with an inconclusive outcome. Calls follow the shape of the dose curve; as a rule, active = well fitted cell-killing curve with a large enough effect; inconclusive = small, poorly fitted or top-dose-only effect, or effect the other way; inactive = flat fitted curve, though single readings scatter. This is one part of a sample in which actives are shown more often than they occur.
Labels: active, inactive

compound	class_assignment
O=Nc1c(O)cc(O)c2ccccc12	inactive
O=S(=O)(/N=C(/Nc1ccccn1)c1ccccc1)c1ccc(Cl)cc1	active
N=C1C(c2nc3ccccc3s2)=C(O)CN1NC(=O)c1ccc([N+](=O)[O-])cc1	active
COC(=O)[C@]12CCCCC=C1N(Cc1ccco1)C(=O)[C@H](CC(=O)NCC1CCCCC1)C2	inactive
COc1ccccc1N1CC(O)=C(c2nc3ccccc3s2)C1=N	active
COc1ccc(S(=O)(=O)NC(=O)C2(C)CCN2C(=O)c2ccccc2CCc2ccccc2)cc1 (stereo unspecified)	inactive
Cc1ccc(S(=O)(=O)N2CCOCC2)cc1NC(=O)c1ccncc1	inactive
CC(Nc1ccc(-c2nc(-c3ccco3)no2)cc1[N+](=O)[O-])c1ccccc1 (stereo unspecified)	inactive
CCc1nc2c(OCc3cccc(OC)c3)cccn2c1N(C)C(=O)C(C)C	inactive
COc1ccc(OC)c(NC(=O)C2(C)CCN2C(=O)Cc2ccccc2)c1 (stereo unspecified)	inactive
Cc1ccc(C)n1NC(=O)c1ccc([N+](=O)[O-])cc1	inactive
O=C1CCc2cc(S(=O)(=O)Nc3cccc(Oc4ccccc4)c3)ccc2N1	inactive
O=c1oc2c(CN3CCCCC3)c(O)ccc2c2c1CCCCC2	active
CCCCn1nnnc1C(c1ccccc1)N1CCN(c2ccccc2OC)CC1 (stereo unspecified)	inactive
O=C1NC(Cc2ccccc2)c2nc3ccc(Br)cc3c(=O)n2-c2cc3ccccc3cc21 (stereo unspecified)	inactive
COCCNC(=O)C1C(=O)Nc2ccccc2C(=O)N1c1ccc2c(c1)OCCO2 (stereo unspecified)	inactive
Cc1ccc(C)c2sc(NC(=O)c3ccc(S(=O)(=O)N4CCCC4)cc3)nc12	inactive
O=C1c2ccccc2NC(c2ccc(-c3cccc(Cl)c3)o2)N1O (stereo unspecified)	active
O=C(NCc1cccnc1)c1ccc2nc([C@@H]3O[C@H](CO)[C@H](O)[C@H](O)[C@H]3O)[nH]c2c1	inactive
CC(=O)NN=C(C)c1ccc(NC(=O)C2CC2)cc1	inactive
COc1ccc(-c2c(C)c3ccc(O)c(CN4CCN(C)CC4)c3oc2=O)cc1OC	inactive

====

experiment: qHTS assay for MDR1-selective chemotherapeutics: Primary screen using the drug-selected MDR subline cells KB-V1; details: KB-V1 MDR cells viability, CellTiter-Glo, 72 h; series mostly up to 46.1 µM; also: nearly all actives have a fitted effect of over 60% in size; also: potency is read from the fitted curve at half-maximal effect
The campaign covered roughly 400,000 compounds. About 13,000 (3.2%) were called active. Another 18% or so got no clear call; they are omitted. What follows is part of a selection rich in actives, with near analogues and random picks from the rest.

compound	Potency
CC(C)(C(=O)N1CCC1(C)C(=O)NS(=O)(=O)c1ccc(Br)cc1)c1ccccc1 (stereo not given)	inactive
COC(=O)[C@]12CCCCC=C1N(Cc1cccc3ccccc13)C(=O)[C@H](CC(=O)N1CCOCC1)C2	inactive
CCn1cc(C(=O)NCc2ccccc2)c(=O)c2cc(S(=O)(=O)N3CCCCC3)ccc21	inactive
C=CCn1cc(C(=O)NCc2ccc(Cl)cc2)c(=O)c2cc(S(=O)(=O)N(CC)CC)ccc21	18.4 µM (active)
COc1ccc(OC)c(C(=O)c2coc3ccc(O)c(CN4CCOCC4)c23)c1	7.31 µM (active)
COc1ccc(OC)c(C(=O)c2coc3ccc(OC)cc23)c1	inactive
CCN1CCN(c2ccc(/C=C/c3ccnc4ccccc34)cc2)CC1	inactive
CC(=O)NC(c1cccc(F)c1)c1nc(-c2cccc(F)c2)cs1 (stereo not given)	inactive
Cc1ccc(C(=O)c2coc3ccc(O)c(CN(C)C)c23)cc1	inactive
CCN(CC)S(=O)(=O)c1ccc2c(c1)c(=O)c(C(=O)N1CCN(c3cccc(Cl)c3)CC1)cn2C	inactive
